The measurements presented in this section are drawn from patent US20240116985A1.

target: beta-catenin/TCF4 engagement (Homo sapiens, UniProt P35222); construct: expressed in transfected cells; host or cells: HEK293; assay: Nano-BRET target engagement assay (B-cat-Halo & TCF4-Luc in HEK293 cells); type: cell-based; conditions: absolute IC50; read-out: NanoBRET Abs IC50
Sequence (P35222 whole entry): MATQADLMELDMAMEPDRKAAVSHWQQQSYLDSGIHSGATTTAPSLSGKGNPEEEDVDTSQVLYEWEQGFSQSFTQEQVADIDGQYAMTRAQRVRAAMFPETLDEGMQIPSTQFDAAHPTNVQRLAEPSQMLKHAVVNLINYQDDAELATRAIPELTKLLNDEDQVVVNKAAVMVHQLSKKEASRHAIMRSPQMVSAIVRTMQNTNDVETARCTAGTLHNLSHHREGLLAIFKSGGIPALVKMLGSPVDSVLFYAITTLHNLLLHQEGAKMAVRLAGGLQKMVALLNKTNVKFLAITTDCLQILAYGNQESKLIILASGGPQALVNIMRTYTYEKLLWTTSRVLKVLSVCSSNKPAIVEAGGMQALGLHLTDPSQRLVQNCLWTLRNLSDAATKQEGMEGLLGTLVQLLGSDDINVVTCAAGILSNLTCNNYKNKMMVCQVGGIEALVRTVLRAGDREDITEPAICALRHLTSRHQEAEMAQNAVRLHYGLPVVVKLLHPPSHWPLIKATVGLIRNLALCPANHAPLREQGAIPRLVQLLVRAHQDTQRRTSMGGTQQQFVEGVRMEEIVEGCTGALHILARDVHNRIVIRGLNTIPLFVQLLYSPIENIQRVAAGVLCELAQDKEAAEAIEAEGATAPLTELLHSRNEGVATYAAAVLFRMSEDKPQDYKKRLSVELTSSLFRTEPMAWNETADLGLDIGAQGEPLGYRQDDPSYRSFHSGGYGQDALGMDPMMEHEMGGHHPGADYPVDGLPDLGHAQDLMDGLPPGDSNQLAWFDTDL
# key: entry, value: IC50
Record the value in µM, omitting the unit from your answer.

compound	IC50 / µM
CC(=O)N1CCC[C@]12CC=CCCCC1(CCCC=CCCCOC(=O)N3CC[C@@](C(=O)N[C@@H](Cc4ccsc4)C(=O)N[C@@H](Cc4csc5ccccc45)C(=O)N[C@@H](CCC(N)=O)C(N)=O)(C3)NC(=O)[C@H](CC(C)C)NC(=O)[C@H](Cc3ccccc3)NC(=O)[C@H](C)NC(=O)[C@H](C)NC(=O)[C@H](CNCC(=O)O)NC(=O)[C@H](CC(=O)O)NC1=O)NC(=O)[C@H](CC(C)(C)C)NC(=O)[C@H](CC(=O)O)NC2=O (some centres unmarked) [I-1731]	29.5
CC(=O)N1CCC[C@]12CC=CCCCC1(CCCC=CCCCOC(=O)N3CC[C@@](C(=O)N[C@@H](Cc4ccccc4C(F)(F)F)C(=O)N[C@@H](Cc4csc5ccccc45)C(=O)N[C@@H](CO)C(N)=O)(C3)NC(=O)[C@H](CC(C)C)NC(=O)[C@H](Cc3ccccc3)NC(=O)[C@H](C)NC(=O)[C@H](C)NC(=O)[C@H](Cc3ccccc3C(=O)O)NC(=O)[C@H](CC(=O)O)NC1=O)NC(=O)[C@H](CC(C)(C)C)NC(=O)[C@H](CC(=O)O)NC2=O (single isomer, unassigned) [I-1661]	8.3
CC(=O)N1CCC[C@]12CC=CCCCC1(CCCC=CCCCOC(=O)N3CC[C@@](C(=O)N[C@@H](Cc4ccccc4C(F)(F)F)C(=O)N[C@@H](Cc4csc5ccccc45)C(=O)N[C@@H](C)C(N)=O)(C3)NC(=O)[C@H](CC(C)C)NC(=O)[C@H](Cc3ccccc3)NC(=O)[C@H](C)NC(=O)[C@H](CCC(=O)N3CCOCC3)NC(=O)[C@H](Cc3cccc(C(=O)O)c3)NC(=O)[C@H](CC(=O)O)NC1=O)NC(=O)[C@H](CC(C)(C)C)NC(=O)[C@H](CC(=O)O)NC2=O (some centres unmarked) [I-2315]	1.2

In the following, a different compound is considered.
Ask: Fill blank: measured IC50 of the compound CC(=O)N1CCC[C@]12CC=CCCCC1(CCCC=CCCCOC(=O)N3CC[C@@](C(=O)N[C@@H](Cc4ccsc4)C(=O)N[C@@H](Cc4csc5ccccc45)C(=O)N[C@@H](CO)C(N)=O)(C3)NC(=O)[C@H](CC(C)C)NC(=O)[C@H](Cc3ccccc3)NC(=O)[C@H](C)NC(=O)[C@H](C)NC(=O)[C@H](Cc3cc(C(=O)O)cc(C(F)(F)F)c3)NC(=O)[C@H](CC(=O)O)NC1=O)NC(=O)[C@H](CC(C)(C)C)NC(=O)[C@H](CC(=O)O)NC2=O (some centres unmarked) [I-2209] is ____.
Reply: 18.6

----------
Test: Solubility in PBS
Assay type: physicochemical
Experimental: After ultracentrifugation of the PBS solution, the supernatant was analyzed by HPLC and compared to an HPLC injection 50 μM peptide DMSO solution. Solubility was determined by: [(Area of PBS peak)/(Area of DMSO peak)]*50 uM.
result-type: Solubility (µM)
Please reply with the bare figure in µM and do not write the unit itself.

Look over these answered cases.
molecule	value-unit	endpoint-result
CC(=O)N1CCC[C@]12CC=CCCCC1(CCCC=CCCCOC(=O)N3CC[C@@](C(=O)N[C@@H](Cc4ccccc4)C(=O)N[C@@H](Cc4csc5ccccc45)C(=O)N[C@@H](CCC(N)=O)C(N)=O)(C3)NC(=O)[C@H](CC(C)C)NC(=O)[C@H](Cc3ccccc3)NC(=O)[C@H](C)NC(=O)[C@H](CCCCNC(C)C)NC(=O)[C@H](CCCCN)NC(=O)[C@H](CC(N)=O)NC1=O)NC(=O)[C@H](C)NC(=O)[C@H](CC(=O)O)NC2=O (some centres unmarked) [I-1380]	µM	10
CC(=O)N1CCC[C@]12CC=CCCCC1(CCCC=CCCCCCC[C@@](C)(C(=O)N[C@@H](Cc3ccccc3)C(=O)N[C@@H](Cc3csc4ccccc34)C(=O)N[C@@H](CCC(N)=O)C(N)=O)NC(=O)[C@H](C)NC(=O)[C@H](Cc3cccc(C(F)(F)F)c3)NC(=O)[C@H](C)NC(=O)[C@H](C)NC(=O)[C@H](CC(=O)O)NC(=O)[C@H](CC(=O)O)NC1=O)NC(=O)[C@H](C)NC(=O)[C@H](CC(=O)O)NC2=O (some centres unmarked) [I-375]	µM	49
CC(=O)N1CCC[C@]12CC=CCCCC1(CCCC=CCCCOC(=O)N3CC[C@@](C(=O)N[C@@H](Cc4ccccc4Cl)C(=O)N[C@@H](Cc4csc5ccccc45)C(=O)N[C@@H](CCC(N)=O)C(N)=O)(C3)NC(=O)[C@H](CC(C)C)NC(=O)[C@H](Cc3ccccc3)NC(=O)[C@H](C)NC(=O)[C@H](C)NC(=O)[C@H]([C@@H](C)O)NC(=O)[C@H](CC(=O)O)NC1=O)NC(=O)[C@H](CC(C)(C)C)NC(=O)[C@H](CC(=O)O)NC2=O (some centres unmarked) [I-1169]	µM	10
CC(=O)N1CCC[C@]12CC=CCCCC1(CCCC=CCCCOC(=O)N3CC[C@@](C(=O)N[C@@H](Cc4ccsc4)C(=O)N[C@@H](Cc4csc5ccccc45)C(=O)N[C@@H](CCC(N)=O)C(N)=O)(C3)NC(=O)[C@H](CC(C)C)NC(=O)[C@H](Cc3ccccc3)NC(=O)[C@H](C)NC(=O)[C@H](C)NC(=O)[C@H]([C@@H](C)O)NC(=O)[C@H](CC(=O)O)NC1=O)NC(=O)[C@H](CC1CCCCC1)NC(=O)[C@H](CC(=O)O)NC2=O (some centres unmarked) [I-1174]	µM	10

Ask: Which Solubility reading was recorded for the molecule CC(=O)N1CCC[C@]12CC=CCCCC1(CCCC=CCCCCCC[C@@](C)(C(=O)N[C@@H](Cc3ccccc3)C(=O)N[C@@H](Cc3csc4ccccc34)C(=O)N[C@@H](Cc3c[nH]cn3)C(N)=O)NC(=O)[C@H](CC(N)=O)NC(=O)[C@H](Cc3ccccc3)NC(=O)[C@H](C)NC(=O)[C@H](C)NC(=O)[C@H](CC(=O)O)NC(=O)[C@H](CC(=O)O)NC1=O)NC(=O)[C@H](C)NC(=O)[C@H](CC(=O)O)NC2=O (some centres unmarked) [I-466] ?
Reply: 50
